Catalogue of substances with associated Result for incubation with human IgG-Fc (immunoglobulin binding detection)
Test system: human IgG-Fc
Test: Cellulose-immobilized 13-mer peptide variants incubated with human IgG-Fc, anti-human IgG-AP detection
Assay type: binding
Parameters: key: No binding of immunoglobulin for the defined peptide variant, detection negative: 0; Binding of immunoglobulin for the defined peptide variant, detection positive: +
Conditions: IgG-Fc 1 μg/ml in blocking buffer, 3 h room temperature
Bridge positions count the residues as written; N and C are the ends. Square brackets hold non-standard residues; d marks the D form. Ends that are not written are not given here. cellulose = not defined here; βAla = NCCC(=O)O
measured_endpoint: Result for incubation with human IgG-Fc (immunoglobulin binding detection)

substance: 07I: cellulose-bound 13-mer variant DCAWHLIELVWCT-(βA)(βA) (DCAWHLIELVWCT-{βAla-βAla-cellulose}; disulfide 2-12 (inferred); not fully specified (N-terminus); printed as DCAWHLIELVWCT-(βA)(βA); reading uncertain)
test_result: 0
//
substance: 10Q: cellulose-bound 13-mer variant DCAWHLGELQWCT-(βA)(βA) (DCAWHLGELQWCT-{βAla-βAla-cellulose}; disulfide 2-12 (inferred); reading uncertain; also: printed as DCAWHLGELQWCT-(βA)(βA))
test_result: 0
//
substance: 11I: cellulose-bound 13-mer variant DCAWHLGELVICT-(βA)(βA)
test_result: 0
//
substance: 02F: cellulose-bound 13-mer variant DFAWHLGELVWCT-(βA)(βA) (DFAWHLGELVWCT[βAla][βAla]; not fully specified; printed as DFAWHLGELVWCT-(βA)(βA); also: cellulose-bound)
test_result: 0
//
substance: 10S: cellulose-bound 13-mer variant DCAWHLGELSWCT-(βA)(βA) (DCAWHLGELSWCT-{βAla-βAla-cellulose}; disulfide 2-12 (inferred); reading uncertain; also: printed as DCAWHLGELSWCT-(βA)(βA))
test_result: 0
//
substance: 07T: cellulose-bound 13-mer variant DCAWHLTELVWCT-(βA)(βA) (DCAWHLTELVWCT-{βAla-βAla-cellulose}; disulfide 2-12 (inferred); not fully specified (N-terminus); printed as DCAWHLTELVWCT-(βA)(βA); reading uncertain)
test_result: 0
//
substance: 07N: cellulose-bound 13-mer variant DCAWHLNELVWCT-(βA)(βA) (DCAWHLNELVWCT-{βAla-βAla-cellulose}; disulfide 2-12 (inferred); not fully specified (N-terminus); printed as DCAWHLNELVWCT-(βA)(βA); reading uncertain)
test_result: 0
//
substance: 01Y: cellulose-bound 13-mer variant YCAWHLGELVWCT-(βA)(βA) (YCAWHLGELVWCT-{βAla-βAla-cellulose}; disulfide 2-12 (inferred); reading uncertain; also: printed as YCAWHLGELVWCT-(βA)(βA))
test_result: 0
//
substance: 10T: cellulose-bound 13-mer variant DCAWHLGELTWCT-(βA)(βA) (DCAWHLGELTWCT-{βAla-βAla-cellulose}; disulfide 2-12 (inferred); reading uncertain; also: printed as DCAWHLGELTWCT-(βA)(βA))
test_result: 0
//
substance: 07H: cellulose-bound 13-mer variant DCAWHLHELVWCT-(βA)(βA) (DCAWHLHELVWCT-{βAla-βAla-cellulose}; disulfide 2-12 (inferred); not fully specified (N-terminus); printed as DCAWHLHELVWCT-(βA)(βA); reading uncertain)
test_result: 0
//
substance: 03D: cellulose-bound 13-mer variant DCDWHLGELVWCT-(βA)(βA) (DCDWHLGELVWCT-{βAla-βAla-cellulose}; disulfide 2-12 (inferred); reading uncertain; also: printed as DCDWHLGELVWCT-(βA)(βA))
test_result: 0
//
substance: 07C: cellulose-bound 13-mer variant DCAWHLCELVWCT-(βA)(βA) (DCAWHLCELVWCT-{βAla-βAla-cellulose}; not fully specified (N-terminus); printed as DCAWHLCELVWCT-(βA)(βA); cysteine pairing not given here; reading uncertain)
test_result: 0
//
substance: 10N: cellulose-bound 13-mer variant DCAWHLGELNWCT-(βA)(βA) (DCAWHLGELNWCT-{βAla-βAla-cellulose}; disulfide 2-12 (inferred); reading uncertain; also: printed as DCAWHLGELNWCT-(βA)(βA))
test_result: 0
